Where these numbers come from: ChEMBL document CHEMBL5291721

# Experimental target: 5-hydroxytryptamine receptor 2B (Homo sapiens, UniProt P41595); also: assay procedure not described here
# Sequence (P41595 whole entry): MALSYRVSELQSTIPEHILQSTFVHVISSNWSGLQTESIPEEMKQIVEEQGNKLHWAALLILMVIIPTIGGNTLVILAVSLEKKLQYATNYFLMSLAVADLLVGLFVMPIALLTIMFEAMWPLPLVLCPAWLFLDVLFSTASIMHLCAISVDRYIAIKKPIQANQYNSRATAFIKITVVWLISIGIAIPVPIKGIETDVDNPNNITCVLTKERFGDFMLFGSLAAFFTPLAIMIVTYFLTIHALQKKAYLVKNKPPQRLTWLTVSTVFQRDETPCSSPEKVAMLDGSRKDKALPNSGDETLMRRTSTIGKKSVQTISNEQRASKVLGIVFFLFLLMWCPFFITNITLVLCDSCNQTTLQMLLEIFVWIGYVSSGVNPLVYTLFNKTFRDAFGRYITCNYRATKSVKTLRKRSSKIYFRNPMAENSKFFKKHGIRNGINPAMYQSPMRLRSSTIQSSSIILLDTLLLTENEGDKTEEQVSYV
# Assay type: functional, cell-based
For each entry below, report its AC50 value.

AC50 for 5-hydroxytryptamine receptor 2B (Homo sapiens, UniProt P41595) with input CC(C)(C)NCC(O)COc1cccc2c1CCC(=O)N2 (stereo unspecified) equals > 10 µM

AC50 for 5-hydroxytryptamine receptor 2B (Homo sapiens, UniProt P41595) with input CC(=O)O[C@H]1CC[C@@]2(C)C(=CC[C@@H]3[C@@H]2CC[C@]2(C)C(c4cccnc4)=CC[C@@H]32)C1 [ABIRATERONE ACETATE] equals > 30 µM

AC50 for 5-hydroxytryptamine receptor 2B (Homo sapiens, UniProt P41595) with input "Nc1nc(/C(=C/CC(=O)O)C(=O)N[C@@H]2C(=O)N3C(C(=O)O)=CCS[C@H]23)cs1" equals > 30 µM

AC50 for 5-hydroxytryptamine receptor 2B (Homo sapiens, UniProt P41595) with input COc1ccccc1OCC(O)CN1CCN(CC(=O)Nc2c(C)cccc2C)CC1 (stereo unspecified) equals 11 µM

AC50 for 5-hydroxytryptamine receptor 2B (Homo sapiens, UniProt P41595) with input Cc1oc(=O)oc1CN1CCN(c2cc3c(cc2F)c(=O)c(C(=O)O)c2n3C(C)S2)CC1 (stereo unspecified) equals > 30 µM

AC50 for 5-hydroxytryptamine receptor 2B (Homo sapiens, UniProt P41595) with input "CNS(=O)(=O)Cc1ccc2[nH]cc(CCN(C)C)c2c1" equals > 10 µM

AC50 for 5-hydroxytryptamine receptor 2B (Homo sapiens, UniProt P41595) with input "CCCSc1ccc2nc(NC(=O)OC)[nH]c2c1" equals > 10 µM

AC50 for 5-hydroxytryptamine receptor 2B (Homo sapiens, UniProt P41595) with input CCN(CC)C(=O)N[C@H]1C[C@@H]2c3cccc4[nH]cc(c34)C[C@H]2N(C)C1 [TERGURIDE] equals 0.58 µM

AC50 for 5-hydroxytryptamine receptor 2B (Homo sapiens, UniProt P41595) with input CCCC(=O)O[C@]1(C(=O)CO)CC[C@H]2[C@@H]3CCC4=CC(=O)CC[C@]4(C)[C@H]3[C@@H](O)C[C@@]21C [HYDROCORTISONE BUTYRATE] equals > 10 µM

AC50 for 5-hydroxytryptamine receptor 2B (Homo sapiens, UniProt P41595) with input "CN1CCC(=C2c3ccccc3CCc3sccc32)CC1" equals 0.0279 µM

AC50 for 5-hydroxytryptamine receptor 2B (Homo sapiens, UniProt P41595) with input "Cc1c(C(=O)NN2CCCCC2)nn(-c2ccc(Cl)cc2Cl)c1-c1ccc(Cl)cc1" equals 14 µM

AC50 for 5-hydroxytryptamine receptor 2B (Homo sapiens, UniProt P41595) with input CCC(C)n1ncn(-c2ccc(N3CCN(c4ccc(OCC5COC(Cn6cncn6)(c6ccc(Cl)cc6Cl)O5)cc4)CC3)cc2)c1=O (stereo unspecified) equals > 30 µM

AC50 for 5-hydroxytryptamine receptor 2B (Homo sapiens, UniProt P41595) with input "c1cnc(N2CCN(Cc3ccc4c(c3)OCO4)CC2)nc1" equals 2.3 µM

AC50 for 5-hydroxytryptamine receptor 2B (Homo sapiens, UniProt P41595) with input C[C@]12CCC(=O)C=C1CC[C@@H]1[C@@H]2[C@@H](O)C[C@@]2(C)[C@H]1CC[C@]2(O)C(=O)CO [HYDROCORTISONE] equals > 10 µM

AC50 for 5-hydroxytryptamine receptor 2B (Homo sapiens, UniProt P41595) with input CC1(C)O[C@@H]2C[C@H]3[C@@H]4CCC5=CC(=O)C=C[C@]5(C)[C@H]4[C@@H](O)C[C@]3(C)[C@]2(C(=O)CO)O1 [DESONIDE] equals > 10 µM

AC50 for 5-hydroxytryptamine receptor 2B (Homo sapiens, UniProt P41595) with input NS(=O)(=O)Cc1noc2ccccc12 [ZONISAMIDE] equals > 10 µM

====

# Experimental target: Alpha-2A adrenergic receptor (Homo sapiens, UniProt P08913); also: assay procedure not described here
# Sequence (P08913 whole entry): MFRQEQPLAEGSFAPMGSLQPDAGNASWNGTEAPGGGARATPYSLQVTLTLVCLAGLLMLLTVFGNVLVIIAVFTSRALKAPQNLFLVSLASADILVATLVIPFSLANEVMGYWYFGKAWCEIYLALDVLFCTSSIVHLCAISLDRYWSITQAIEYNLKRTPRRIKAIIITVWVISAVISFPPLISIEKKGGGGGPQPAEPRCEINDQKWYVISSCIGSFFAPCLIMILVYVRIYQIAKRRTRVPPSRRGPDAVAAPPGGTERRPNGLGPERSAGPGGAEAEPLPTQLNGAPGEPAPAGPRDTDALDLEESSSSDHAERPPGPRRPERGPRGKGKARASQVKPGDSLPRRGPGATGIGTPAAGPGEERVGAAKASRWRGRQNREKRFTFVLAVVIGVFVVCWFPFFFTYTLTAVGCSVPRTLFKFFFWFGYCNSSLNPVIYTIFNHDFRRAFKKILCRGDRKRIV
# Assay type: functional, cell-based
Observed property: AC50

Entry Cc1oc(=O)oc1CN1CCN(c2cc3c(cc2F)c(=O)c(C(=O)O)c2n3C(C)S2)CC1 (centres undefined) , AC50 reported as > 30 µM

Entry Cn1nnc2c(C(N)=O)ncn2c1=O [TEMOZOLOMIDE] , AC50 reported as > 30 µM

Entry COc1ccccc1OCC(O)CN1CCN(CC(=O)Nc2c(C)cccc2C)CC1 (centres undefined) , AC50 reported as > 30 µM

Entry CCOC(=O)OC(C)OC1=C(C(=O)Nc2ccccn2)N(C)S(=O)(=O)c2ccccc21 (centres undefined) , AC50 reported as > 30 µM

Entry "Nc1ccn([C@H]2CC[C@@H](CO)O2)c(=O)n1" , AC50 reported as > 10 µM

Entry "CN1CCN(CC/C=C2/c3ccccc3Sc3ccc(S(=O)(=O)N(C)C)cc32)CC1" , AC50 reported as > 10 µM

Entry "CCOC(=O)[C@H](CCc1ccccc1)N[C@@H](C)C(=O)N1[C@H](C(=O)O)C[C@@H]2CCC[C@@H]21" , AC50 reported as > 10 µM

Entry C[C@]12CCC(=O)C=C1CC[C@@H]1[C@@H]2[C@@H](O)C[C@@]2(C)[C@H]1CC[C@]2(O)C(=O)CO [HYDROCORTISONE] , AC50 reported as > 10 µM

Entry CCN(CC)C(=O)N[C@H]1C[C@@H]2c3cccc4[nH]cc(c34)C[C@H]2N(C)C1 [TERGURIDE] , AC50 reported as > 30 µM

Entry NS(=O)(=O)Cc1noc2ccccc12 [ZONISAMIDE] , AC50 reported as > 10 µM

Entry "CCOC(=O)[C@H](CCc1ccccc1)N[C@@H](C)C(=O)N1C(=O)N(C)C[C@H]1C(=O)O" , AC50 reported as > 30 µM

Entry CN(C)CCC(c1ccc(Cl)cc1)c1ccccn1 (centres undefined) , AC50 reported as > 10 µM

Entry CC(C[N+](C)(C)C)OC(N)=O (centres undefined) , AC50 reported as > 10 µM

Entry "CN(C)/N=N/c1[nH]cnc1C(N)=O" , AC50 reported as > 10 µM

Entry Clc1ccc(C(c2ccccc2Cl)C(Cl)Cl)cc1 (centres undefined) , AC50 reported as > 10 µM

Entry "CC=CC(=O)N(CC)c1ccccc1C" , AC50 reported as > 10 µM

Entry "CO[C@H]1C[C@@H]2CC[C@@H](C)[C@@](O)(O2)C(=O)C(=O)N2CCCC[C@H]2C(=O)O[C@H]([C@H](C)C[C@@H]2CC[C@@H](O)[C@H](OC)C2)CC(=O)[C@H](C)/C=C(\C)[C@@H](O)[C@@H](OC)C(=O)[C@H](C)C[C@H](C)/C=C/C=C/C=C/1C" , AC50 reported as > 10 µM

Entry C=CCc1ccccc1OCC(O)CNC(C)C (centres undefined) , AC50 reported as > 30 µM

Entry Cc1ccc(S(=O)(=O)NC(=O)NN2CC3CCCC3C2)cc1 (centres undefined) [GLICLAZIDE] , AC50 reported as > 10 µM

Entry O=C(OCC(O)CO)c1ccccc1Nc1ccnc2cc(Cl)ccc12 (centres undefined) , AC50 reported as > 30 µM

Entry "Nc1nc(N)nc(-c2cc(Cl)ccc2Cl)n1" , AC50 reported as > 30 µM

Entry "O=C(O)C1=C(CSc2nnnn2CS(=O)(=O)O)CS[C@@H]2[C@H](NC(=O)[C@H](O)c3ccccc3)C(=O)N12" , AC50 reported as > 30 µM

Entry NC(=O)OCC(COC(N)=O)c1ccccc1 [FELBAMATE] , AC50 reported as > 10 µM

Entry COc1cc2nc(N(C)CCCNC(=O)C3CCCO3)nc(N)c2cc1OC (centres undefined) , AC50 reported as > 30 µM

Entry "C[C@](N)(Cc1ccc(O)c(O)c1)C(=O)O" , AC50 reported as > 10 µM

Entry "C#C[C@]1(O)CC[C@H]2[C@@H]3CCc4cc(OC5CCCC5)ccc4[C@H]3CC[C@@]21C" , AC50 reported as > 10 µM

Entry "COc1ccc2c3c1O[C@H]1[C@@H](O)C=C[C@H]4[C@@H](C2)N(C)CC[C@@]341" , AC50 reported as > 10 µM

Entry "COC(=O)[C@H]1[C@H]2C[C@@H]3c4[nH]c5cc(OC)ccc5c4CCN3C[C@H]2C[C@@H](OC(=O)/C=C/c2cc(OC)c(OC)c(OC)c2)[C@@H]1OC" , AC50 reported as > 10 µM

Entry COc1ccc(CCN(C)CCCC(C#N)(c2cc(OC)c(OC)c(OC)c2)C(C)C)cc1OC (centres undefined) , AC50 reported as > 30 µM

Entry "CCN1CCN(C(=O)N[C@@H](C(=O)N[C@@H]2C(=O)N3C(C(=O)O)=C(CSc4nnnn4C)CS[C@H]23)c2ccc(O)cc2)C(=O)C1=O" , AC50 reported as > 30 µM

Entry "CC(C)=CCC/C(C)=C/C=C/C(C)=C/C=C/C(C)=C/C=C/C=C(C)/C=C/C=C(C)/C=C/C=C(\C)CCC=C(C)C" , AC50 reported as > 30 µM

Entry "CCCSc1ccc2nc(NC(=O)OC)[nH]c2c1" , AC50 reported as > 10 µM

Entry CCOc1ccccc1OCC1CNCCO1 (centres undefined) , AC50 reported as > 10 µM

Entry "CC[C@H]1CN2CCc3cc(OC)c(OC)cc3[C@@H]2C[C@@H]1C[C@H]1NCCc2cc(OC)c(OC)cc21" , AC50 reported as > 30 µM
